Catalogue of ADG (average daily weight gain) readings, one per entry.
Test system: yellow broilers
Settings: 1-day-old yellow broilers, basal ration + 750 ppm, 20 days
Report only the number, with the unit g/d per broiler understood.

Use these answered entries as a reference point.
CCNC(=O)CCC(NC(=O)c1ccccc1)C(=O)[O-].CCNC(=O)CCC(NC(=O)c1ccccc1)C(=O)[O-].[Ca+2] (stereo not shown) :: 14.8
CCNC(=O)CCC(NC(=O)c1ccccc1)C(=O)[O-].CCNC(=O)CCC(NC(=O)c1ccccc1)C(=O)[O-].[Cu+2] (stereo not shown) :: 14.2
CCCCCCCCCC(=O)NC(CCC(=O)NCC)C(=O)O (stereo not shown) :: 14.0

Field: next molecule
Lookup: May I ask what ADG (average daily weight gain) has been recorded for CCNC(=O)CCC(NC(=O)c1ccccc1)C(=O)OCC (stereo not shown) ?
Found: 14.2

Origin of values: patent US11964929B2
